- Subject of test: human CB1R (SNAP-CB1R91–472) (Homo sapiens)
- Construct: SNAP-tagged human CB1R or CB2R (SNAP-CB1R91–472 and SNAP-CB2); 5HT3A signal peptide (N, cleaved yes); expressed in transfected cells; membranes
- Sequence (P21554 91-472): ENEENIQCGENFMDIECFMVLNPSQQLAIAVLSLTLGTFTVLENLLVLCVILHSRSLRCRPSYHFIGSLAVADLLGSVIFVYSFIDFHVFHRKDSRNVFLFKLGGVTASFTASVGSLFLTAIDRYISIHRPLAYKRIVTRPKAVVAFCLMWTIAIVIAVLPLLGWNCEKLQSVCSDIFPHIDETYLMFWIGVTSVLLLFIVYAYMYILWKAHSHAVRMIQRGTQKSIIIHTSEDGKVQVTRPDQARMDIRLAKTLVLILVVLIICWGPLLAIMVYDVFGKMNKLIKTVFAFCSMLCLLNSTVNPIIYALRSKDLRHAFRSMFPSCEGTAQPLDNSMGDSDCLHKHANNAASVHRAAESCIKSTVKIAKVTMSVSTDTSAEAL
- Protocol text: biochemical
- Type: binding
- Test settings: pK d (kinetic)
Measurement kind: Kd (µM)

[[record]]
line_notation = "CCCCCCC(C)(C)c1cc(OC)c([C@@H]2C=C(CO)[C@@H]3C[C@H]2C3(C)C)c(OC)c1"
output_unit = "µM"
assay_result = 4.47


---

- Subject of test: human CB1R (SNAP-CB1R91–472) (Homo sapiens)
Measurement kind: Ki

[[record]]
compound = "CCCCCCC(C)(C)c1cc(OC)c([C@@H]2C=C(CO)[C@@H]3C[C@H]2C3(C)C)c(OC)c1 [HU-308]"
assay_result = "3.89 µM"

